Readings of TGI for the listed molecules
tested on: SK-MEL-28 melanoma; experiment: NCI tumour cell line growth inhibition, 48 h

Below, each entry is followed by its recorded TGI result.
# molecule, TGI
rows = [
    ("Nc1nc(-[n+]2ccc(-c3ccncc3)cc2)nc(Cl)c1Cl", "> 100 µM"),
    ("COc1ccc(CN2CC(C)(C)C2=O)c(OC)c1", "> 100 µM"),
    ("COc1ccc2[nH]c3c4[nH]c5ccc(OC)cc5c4c4c(c3c2c1)C(=O)NC4=O", "> 25 µM"),
    ("O=c1cc(NCC(O)CN2CCCC2)n(Cc2ccccc2)c(=O)n1Cc1ccccc1 (stereo not given)", "34.6 µM"),
]

Now consider a different molecule.
Qu. Recorded TGI for O=C1C2C3C=C4c5ccccc5N(c5ccccc5)C4(C2C(=O)N1c1ccc([N+](=O)[O-])cc1)[C@H]1C(=O)N(c2ccc([N+](=O)[O-])cc2)C(=O)[C@@H]31 (stereo not given in full) with SK-MEL-28 melanoma, please?
Ans. > 100 µM

###

test system: IGROV1 ovarian; experiment: NCI tumour cell line growth inhibition, 48 h; in the data active = GI50 below about 0.43 µM; inactive = the rest
Thanks in advance; please answer with one of these: 1 for active, 0 for inactive

# molecule, target.or.test.system, classification
measured = [
    ("O=C1/C(=C(/c2ccccc2)N2CCOCC2)Cc2ccccc21", "IGROV1 ovarian", 0),
    ("NC(=O)c1cc(Cl)ccc1NC(=O)/C=C/c1ccccc1", "IGROV1 ovarian", 0),
    ("COCC[C@H]1CCC/C=C/[C@@H]2C[C@H](O)C[C@H]2[C@H](O)/C=C/C(=O)O1", "IGROV1 ovarian", 1),
    ("COc1cc2c3c(n(CCCN)c(=O)c2cc1OC)-c1ccc(C#N)cc1C3=O", "IGROV1 ovarian", 0),
    ("Cc1cc(C)c(NC(=O)c2sc3nc4c(cc3c2N)C(=O)CCC4)c(C)c1", "IGROV1 ovarian", 0),
]

Qu. Any idea what this test logged for `C=C1C(=O)O[C@H]2[C@H]1CC/C(COC(=O)NCCCCNC(=O)OC/C1=C/CC[C@@]3(C)O[C@H]3[C@H]3OC(=O)C(=C)[C@@H]3CC1)=C\CC[C@@]1(C)O[C@@H]21` ?
Ans. 0

Qu. Consider next the molecule `COc1ccc(C(=O)c2cc(C)c(OC)c(C)c2)c(OC)c1O` in the same way.
Ans. 0

Qu. Consider next the molecule `COc1ccc(/C=C/c2c(C(=O)/C=C/c3ccccc3)c(C)nc3ccccc23)cc1` in the same way.
Ans. 0

Qu. Consider next the molecule O=c1cc(NCC(O)CN2CCCC2)n(Cc2ccccc2)c(=O)n1Cc1ccccc1 (configuration not stated) in the same way.
Ans. 0

Qu. Consider next the molecule `Cc1cc2ncnn2cc1Nc1ncc2c(n1)n(C1CCOCC1)c(=O)n2C` in the same way.
Ans. 0

Qu. Consider next the molecule `Nc1ccccc1C#C/C=C\C#Cc1ccccc1N` in the same way.
Ans. 0

Qu. Consider next the molecule `COc1ccc(-c2[nH]c3ccc(OC)cc3c2/C=C(\C#N)S(=O)(=O)c2ccccc2)cc1` in the same way.
Ans. 0

###

Readings of TGI for the listed compounds
test system: LOX IMVI melanoma; experiment: NCI tumour cell line growth inhibition, 48 h

# compound, experimental.result
data = [
    ("CCOC(=O)c1ccc(NCc2ccc3oc(=O)c(-c4ccccc4)nc3c2)cc1", "> 100 µM"),
    ("Nc1nc(-c2ccccc2)cc(-c2ccc(OCc3ccccc3)cc2O)n1", "> 100 µM"),
    ("O=C1c2cccnc2-c2nc(-c3ccc(Cl)cc3)cc3c2c1nc1ccccc13", "> 100 µM"),
    ("CCOC(=O)C1SC(=Nc2ccc(C)c(C)c2)N=C1C (stereo unspecified)", "> 100 µM"),
    ("C=C(C)[C@H]1Cc2c(ccc3c2O[C@@H]2COc4cc(OC)c(OC)cc4[C@@H]2C3=O)O1", "8.04 µM"),
]

Qu. Recorded TGI for `CC(C)=C[C@H]1CCC2(OCCO2)[C@]1(C)COCc1ccccc1` with LOX IMVI melanoma, please?
Ans. 31 µM

###

Readings of TGI for the listed molecules
tested on: OVCAR-8 ovarian; test: NCI tumour cell line growth inhibition, 48 h

Below, each entry is followed by its recorded TGI result.
# molecule, target.or.test.system, TGI
records = [
    ("Cc1ccc(S(=O)(=O)N/N=C2/CCCOC2)cc1", "OVCAR-8 ovarian", "> 100 µM"),
    ("OCC1OC(n2cnc3c2NC=NC[C@H]3O)C(Cl)C1O (some centres not stated)", "OVCAR-8 ovarian", "> 100 µM"),
    ("COc1ccc(C(=O)c2cc(OC)c(OC)c(OC)c2)cc1/C=C/C(=O)c1ccc(F)cc1", "OVCAR-8 ovarian", "37.8 µM"),
    ("COc1ccc2[nH]c3c4[nH]c5ccc(OC)cc5c4c4c(c3c2c1)C(=O)NC4=O", "OVCAR-8 ovarian", "> 25 µM"),
    ("O=C(Nc1cc(Cl)c(Cl)cc1Cl)C(=O)C1C(=O)NC(=S)NC1=O", "OVCAR-8 ovarian", "> 100 µM"),
]

Qu. Find the recorded TGI belonging to `O=C(Nc1ccccc1-c1nc2ccccc2[nH]c1=O)c1ccccc1` and report it.
Ans. 66.1 µM

Qu. Consider next the molecule `O=C1c2ccccc2C(=O)N1CCCCNOCCCN1C(=O)c2ccccc2C1=O` in the same way.
Ans. > 100 µM

Qu. Consider next the molecule `O=C1c2cccnc2-c2nc(-c3ccc(Cl)cc3)cc3c2c1nc1ccccc13` in the same way.
Ans. > 100 µM

Qu. Consider next the molecule `O=C1NC(=S)NC(=O)C1C(c1ccc(O)cc1)C1C(=O)NC(=S)NC1=O` in the same way.
Ans. > 100 µM

Qu. Consider next the molecule `N#CCCC(CCC#N)(CCC#N)NO` in the same way.
Ans. > 100 µM

Qu. Consider next the molecule `CC(C)c1ccc(-c2cc(-c3cn[nH]c3-c3ccccn3)ccn2)cc1` in the same way.
Ans. > 25 µM

Qu. Consider next the molecule c1ccc(C2N3CCCCC3[C@@H]3c4[nH]c5ccccc5c4CCN23)nc1 (some centres not stated) in the same way.
Ans. > 100 µM

Qu. Consider next the molecule `CCc1cc(Cc2cc(CC)c(NC(=O)C(=O)CC(=O)c3sc(-c4cccnc4)nc3C)c(CC)c2)cc(CC)c1NC(=O)C(=O)CC(=O)c1sc(-c2cccnc2)nc1C` in the same way.
Ans. > 100 µM

Qu. Consider next the molecule `C=C(C)[C@@H]1CC[C@]2(CO)CC[C@]3(C)[C@H](CC[C@@H]4[C@@]5(C)C=C(C#N)C(=O)C(C)(C)[C@@H]5CC[C@]43C)[C@@H]12` in the same way.
Ans. 5.24 µM

Qu. Consider next the molecule `C=C(C)CCN[Si](c1ccccc1)(c1ccccc1)C(C)(C)C` in the same way.
Ans. 36 µM

Qu. Consider next the molecule CCN(CC)C1CC(O[C@H]2C[C@](O)(C(=O)CO)Cc3c(O)c4c(c(O)c32)C(=O)c2c(OC)cccc2C4=O)OC(C)C1O (some centres not stated) in the same way.
Ans. 0.565 µM

Qu. Consider next the molecule `Cc1[nH]c(=O)nc2[nH][nH]c(=O)c12` in the same way.
Ans. > 100 µM

Qu. Consider next the molecule CCCC1=C(CC)C(C(=O)Nc2c(C)cccc2C)=NC(S)N1 (configuration not stated) in the same way.
Ans. > 100 µM

Qu. Consider next the molecule `CO/C=C(/C(=O)OC)c1ccccc1COc1cccc(C(F)(F)F)c1` in the same way.
Ans. > 100 µM

Qu. Consider next the molecule CC1(C)OC(=O)N(c2ccccc2)C12C=Cc1cc([N+](=O)[O-])ccc1O2 (configuration not stated) in the same way.
Ans. > 100 µM

Qu. Consider next the molecule CCCC(CCC)NCC(O)c1cc(-c2ccc(C(F)(F)F)cc2)nc(C(F)(F)F)c1 (configuration not stated) in the same way.
Ans. 3.68 µM

Qu. Consider next the molecule `CC1(C)/C(=C/N=O)N(O)C(C)(C)N1O` in the same way.
Ans. > 100 µM

###

Readings of GI50 for the listed compounds
system: BT-549 breast; assay: NCI tumour cell line growth inhibition, 48 h

Below, each entry is followed by its recorded GI50 result.
# chemical.smiles, GI50
rows = [
    ("COc1c(C(=O)/C=C/c2ccccc2)c(O)cc2occc12", "7720 nM"),
    ("C=C1C(=O)O[C@H]2[C@H]1CC/C(COC(=O)NCCCCNC(=O)OC/C1=C/CC[C@@]3(C)O[C@H]3[C@H]3OC(=O)C(=C)[C@@H]3CC1)=C\\CC[C@@]1(C)O[C@@H]21", "1600 nM"),
    ("O=C1c2cccnc2-c2nc(-c3ccc(Cl)cc3)cc3c2c1nc1ccccc13", "18000 nM"),
    ("CC(C)c1ccc(-c2cc(-c3cn[nH]c3-c3ccccn3)ccn2)cc1", "10600 nM"),
    ("Cc1ccc(N=C/C=C(\\Nc2ccc(C)cc2)c2ccc(Cl)cc2)cc1", "11200 nM"),
    ("COc1ccc(C(=O)c2cc(C)c(OC)c(C)c2)cc1OC(=O)CCl", "< 10 nM"),
    ("Cc1cc(C(=O)Nc2ccc3cc(CN4CCOCC4)ccc3n2)c(C)n1-c1ccccc1", "1170 nM"),
    ("C=CCCCCC/C=C\\[C@@H](O)C#CC#C/C=C/CO", "49900 nM"),
    ("CCNCCNc1cc(-c2ccc(C(F)(F)F)cc2)c(C#N)c2nc3ccccc3n12", "1590 nM"),
    ("COCC[C@H]1CCC/C=C/[C@@H]2C[C@H](O)C[C@H]2[C@H](O)/C=C/C(=O)O1", "132 nM"),
]

Qu. Find the recorded GI50 belonging to `COC(=O)Nc1nc2ccc(C3(c4ccc(F)cc4)OCCO3)cc2[nH]1` and report it.
Ans. 2770 nM

Qu. Consider next the compound `C=C(C)[C@@H]1CC[C@]2(CO)CC[C@]3(C)[C@H](CC[C@@H]4[C@@]5(C)C=C(C#N)C(=O)C(C)(C)[C@@H]5CC[C@]43C)[C@@H]12` in the same way.
Ans. 2130 nM
